tested-target: human PPARalpha (Homo sapiens)
Construct: amino acids S167-Y468; expressed in transfected cells; plasmid pcDNA3
Sequence (Q07869 167-468): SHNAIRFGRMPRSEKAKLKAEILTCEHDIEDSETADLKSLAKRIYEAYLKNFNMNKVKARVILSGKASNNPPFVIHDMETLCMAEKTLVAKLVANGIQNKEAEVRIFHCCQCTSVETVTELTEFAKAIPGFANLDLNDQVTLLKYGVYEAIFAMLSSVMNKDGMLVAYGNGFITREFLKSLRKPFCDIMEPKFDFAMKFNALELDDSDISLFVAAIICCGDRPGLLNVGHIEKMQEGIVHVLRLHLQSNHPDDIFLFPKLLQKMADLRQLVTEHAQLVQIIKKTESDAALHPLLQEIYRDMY
assay-procedure: Cellular PPARalpha assay (human GAL4 luciferase reporter, stably transfected HEK cell line)
Type: cell-based
property-measured: EC50 (nM)

                                   compound  readout_units  reported_value
0  COCCN(CCOC)Cc1nc(-c2ccc(C(F)(F)F)cc2)sc1COc1ccc(-c2noc(=O)[nH]2)c(Cl)c1             nM             530
1  O=c1[nH]c(-c2ccc(OCc3sc(-c4ccc(C(F)(F)F)cc4)nc3COCCC3CCCCC3)cc2Cl)no1             nM             398
2  COc1cc(OCc2sc(-c3ccc(C(F)(F)F)cc3)nc2CCCS(C)(=O)=O)ccc1-c1noc(=O)[nH]1             nM            1780
3  COCc1nc(/C=C/c2ccc(OC)cc2)oc1COc1ccc(-c2noc(=O)[nH]2)c(Cl)c1             nM             319
4  COc1cc(OCc2sc(-c3ccc(C(F)(F)F)cc3)nc2CN2CCC(C(F)(F)F)C2)ccc1-c1noc(=O)[nH]1 (racemic)             nM             729

a: CCCCc1nc(-c2ccc(C(F)(F)F)cc2)sc1COc1ccc(-c2noc(=O)[nH]2)c(C)n1
b: O=c1[nH]c(-c2ccc(OCc3sc(-c4ccc(C(F)(F)F)cc4)nc3CN3CCC(C(F)(F)F)CC3)cc2OC(F)F)no1
c: CC(=O)OCc1nc(-c2ccc(C(F)(F)F)cc2)sc1COc1ccc(-c2noc(=O)[nH]2)c(F)c1
Could you please order the items by EC50, going from the lowest number to the highest? Give the order by naming the labels one after another as requested.
a, b, c
(a: 315 nM, b: 664 nM, c: 1410 nM)

* * *

tested-target: human PPARdelta (Homo sapiens)
Construct: amino acids S139-Y441; plasmid pcDNA3
Sequence (Q03181 139-441): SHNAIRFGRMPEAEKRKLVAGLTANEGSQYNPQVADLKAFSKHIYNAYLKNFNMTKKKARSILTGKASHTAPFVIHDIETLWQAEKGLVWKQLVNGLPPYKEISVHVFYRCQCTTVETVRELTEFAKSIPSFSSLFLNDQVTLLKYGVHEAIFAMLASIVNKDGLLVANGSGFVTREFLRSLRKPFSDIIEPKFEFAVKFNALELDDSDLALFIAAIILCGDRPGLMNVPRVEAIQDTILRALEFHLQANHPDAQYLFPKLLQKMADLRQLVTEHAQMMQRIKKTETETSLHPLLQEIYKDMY
assay-procedure: Cellular PPARdelta assay (human GAL4 luciferase reporter, stably transfected HEK cell line)
property-measured: EC50 (nM)

Take a look at these entries with their results.
>>> print(df.to_string())
                               given_smiles  reported_value
0  COc1cc(OCc2sc(-c3ccc(C(F)(F)F)cc3)nc2CN2CCC(C(F)(F)F)CC2)ccc1-c1noc(=O)[nH]1              56
1  Cc1nc(COCc2ccccc2)oc1COc1ccc(-c2noc(=O)[nH]2)c(Cl)c1             358

I: COc1ccc(-c2nc(COc3ccc(-c4noc(=O)[nH]4)c(C)c3)c(CN3CCOCC3)o2)cc1
II: COCCN(CCOC)Cc1nc(-c2ccc(C(F)(F)F)cc2)sc1COc1ccc(-c2noc(=O)[nH]2)c(Cl)c1
III: COc1cc(OCc2sc(-c3ccc(C(F)(F)F)cc3)nc2CNC2CC2)ccc1-c1noc(=O)[nH]1
Could you please order the items by EC50, going from the lowest number to the highest? Give the order by naming the labels one after another as requested.
II, III, I

Hello, the source for this data is patent US7851493B2, in case you need it.
